- protocol: Agilent ZORBAX 300 SB-C18, 150 × 1 mm, 3.5 µm; A: water + 0.01% heptafluorobutyric acid; B: acetonitrile + 0.01% heptafluorobutyric acid; gradient (min/%B) 0/0 100/90
- settings: stereoisomer not certain
assay-readout: LC retention time (min)
Output spec: scalar in min, unitless text.

Assign LC retention time to the following record: C1CCC(NC2CCCCC2)CC1 9.69

Give me measured LC retention time, please, for this compound: NCCCCC(NC(CCc1ccccc1)C(=O)[O-])C(=O)N1CCCC1C(=O)O (centres undefined) 8.09

Return the recorded LC retention time value; entry: CN(C)C(CN)c1ccco1 (centres undefined) 7.02

// Input: CC1CCN(C(=O)c2ccc(N)cc2)CC1 . Output its LC retention time only. 9.82

Consider the compound CN(C)Cc1c(N)cc2ccccc2c1-c1ccccc1 and give its recorded LC retention time. 8.82

Find the measured LC retention time of CC(C)(C)c1ccc(C(=O)NC(CC(=O)O)c2ccc(C(C)(C)C)cc2)cc1 (centres undefined) and report it. 16.7

Item O=c1c2ccccc2nnn1Cc1ccncc1 : provide LC retention time 8.31

Quickly give me recorded LC retention time for c1ccc(Nc2nc(-c3ccccc3)nc3ccccc23)cc1 11.9

Identify LC retention time associated with the compound S=C(NN=Cc1cccnc1)Nc1ccccc1 9.9

State its LC retention time: Cc1ccccc1-n1c(O)c(C=C2C=Nc3ccccc32)c(=O)n(-c2ccccc2C)c1=O 15.9

Please look at this compound and report its LC retention time: CCCCCCn1c2ccccc2c2cc(C(C)=O)ccc21 20

Determine its reported LC retention time: NC(CO)c1ccccc1 (centres undefined) 7.02

Return LC retention time for the following compound: Cc1cc(C=O)c(C)n1C1CCCCC1 14.4

Could you please provide reported LC retention time for CN1CCC(OC(=O)Cc2ccccc2)CC1 ? Thanks! 8.85

Consider the compound O=C(c1cccc(C(=O)N(Cc2ccccc2)c2ccccn2)c1)N(Cc1ccccc1)c1ccccn1 and give its recorded LC retention time. 15.4

Name the recorded LC retention time of the item CCCc1ccccc1N in your answer. 9.54

Respond only with LC retention time recorded for C=CN1CCCC1=O 7.85

Output measured LC retention time for this item: CCCCN(C)C 7.03

Give the measured LC retention time for CC(=O)c1[nH]c(C)c(C(=O)c2ccccc2)c1C 11.6

Complete the entry with LC retention time for CN1CC(=O)N(c2cccc(N)c2)C1=O 6.98

Look up LC retention time of CC1CN=C(NC2CCCCC2)S1 (centres undefined) and report it. 7.02

Give the value of LC retention time reported for the following: C=Cc1ccc(N)cc1 8.31

Read off the recorded LC retention time for CN(C)C(=O)Oc1cc(OC(=O)N(C)C)cc(C(O)CNC(C)(C)C)c1 (centres undefined) 9.59

Look up LC retention time of CNCCOc1ccccc1 and report it. 8.08

Where do the numbers come from? From the RepoRT retention time repository.
